- studyTarget: T1, human GLP-1 receptor (human, UniProt P43220 24-463)
- T1 construct: whole, on cells; Used as purified plasma membranes of the stably transfected BHK cell line, not as intact cells; also called hGLP-1
- assayExplanation: SPA, displacement of 125I-GLP-1(7-36)NH2 from hGLP-1R BHK membranes, high HSA (2.0%)
Numbered stars: 1 amine (or outer) side, 2 acyl side, 3 side chain; on linkers, the order of the positions; unused ones are H or OH. Square brackets hold non-standard residues; d marks the D form. Side chains are listed from the residue outwards. Ends that are not written are not given here. * marks the point of attachment. Decanoyl(10-(4-HOOC-PhO)) = O=C(O)c1ccc(OCCCCCCCCCC(=O)*)cc1; γGlu = O=C(O)[C@H](CCC(=O)[*:2])N[*:1]; C14 diacid = O=C(O)CCCCCCCCCCCCC(=O)*; AEEA = NCCOCCOCC(=O)O; Aib = CC(C)(N)C(=O)O
Cut-off 200 nM on IC50: below means yes (1), at or above means no (0).

binder="HAEGTFTSDVSSYLEK([AEEA-AEEA-γGlu-C14 diacid])QAVRK([AEEA-AEEA-γGlu-C14 diacid])FIEWLVQGRG (also called 11)" cat="no (0)"
binder="HAEGTFTSDVSSYLEGQAVRK([AEEA-AEEA-γGlu-γGlu-Decanoyl(10-(4-HOOC-PhO))])FIAWLVQGK([AEEA-AEEA-γGlu-γGlu-Decanoyl(10-(4-HOOC-PhO))])G (also called 23)" cat="yes (1)"
binder="H[Aib]EGTFTSDVSSYLEEQAARK([AEEA-AEEA-γGlu-Decanoyl(10-(4-HOOC-PhO))])FIEWLVRGK([AEEA-AEEA-γGlu-Decanoyl(10-(4-HOOC-PhO))])GEG (also called 31)" cat="no (0)"
binder="H[Aib]EGTFTSDVSSYLEK([AEEA-AEEA-γGlu-C14 diacid])QAVRK([AEEA-AEEA-γGlu-C14 diacid])FIAWLVRG" cat="yes (1)"
binder="HAEGTFTSDVSSYLEEEAVRK([AEEA-AEEA-γGlu-C14 diacid])FIAHLVQGRK([AEEA-AEEA-γGlu-C14 diacid]) (also called 17)" cat="yes (1)"
binder="HAEGTFTSDVSSYLEEQAAHK([AEEA-AEEA-γGlu-Decanoyl(10-(4-HOOC-PhO))])FIEWLVRGK([AEEA-AEEA-γGlu-Decanoyl(10-(4-HOOC-PhO))])GE (also called 21)" cat="no (0)"
binder=HAEGTFTSDVSSYLEGQAARK([AEEA-AEEA-γGlu-Decanoyl(10-(4-HOOC-PhO))])FIEWLVRGK([AEEA-AEEA-γGlu-Decanoyl(10-(4-HOOC-PhO))])GE cat="yes (1)"
